Assay: Highest frequency of moderate liver toxicity observed during clinical trials, expressed as a percentage. [column '% BIOL' in source]
Conditions: human
Hepatotoxicity (moderate): recorded values

Molecule | Hepatotoxicity (moderate) / %
C[C@H]1C[C@H]2[C@@H]3CCC4=CC(=O)C=C[C@]4(C)[C@@]3(F)[C@@H](O)C[C@]2(C)[C@@]1(O)C(=O)CO | 0
Cc1nnc(NS(=O)(=O)c2ccc(N)cc2)s1 | 0
CCCC1C(=O)N2C(N(C)C)=Nc3ccc(C)cc3N2C1=O (stereo not drawn) | 0
O=C(COc1ccc(Cl)cc1)N1CCN(Cc2ccc3c(c2)OCO3)CC1 [FIPEXIDE] | 0
CC(C)(S)C(=O)N[C@@H](CS)C(=O)O | 9.4
CCOP(=O)(OCC)C(C)NC(=O)N(CCCl)N=O (stereo not drawn) | 30.8
CC(C)[C@@H](CC[C@@H](C)[C@H]1CC[C@H]2[C@@H]3[C@H](O)C[C@H]4C[C@@H](NCCCNCCCCN)CC[C@]4(C)[C@H]3CC[C@]12C)OS(=O)(=O)O | 0
CC#C[C@]1(O)CC[C@H]2[C@@H]3CCC4=CC(=O)CCC4=C3[C@@H](c3ccc(N(C)C)cc3)C[C@@]21C | 14.3
CC(C)(Oc1ccc(Cl)cc1)C(=O)NC(=O)NCN1CCOCC1 [PLAFIBRIDE] | 20
C#C[C@]1(O)CC[C@H]2[C@@H]3CCC4=CCCC[C@@H]4[C@H]3CC[C@@]21C | 0
CC(C)Nc1cccnc1N1CCN(C(=O)c2cc3cc(NS(C)(=O)=O)ccc3[nH]2)CC1 | 7.1
CC(C(=O)O)c1ccc2c(c1)[nH]c1ccc(Cl)cc12 (stereo not drawn) | 56.3
CN(C)CC(Oc1ccccc1)Oc1ccccc1 | 0
COc1ccc2c(C(=O)c3ccc(Cl)cc3)c(C)n(CC(=O)O)c2c1 | 0
O=C1c2ccccc2C(=O)C1c1ccc(F)cc1 | 0
CC12CCC(CC1=O)C2(C)C (stereo not drawn) | 0
CN1CCC(=C2c3ccccc3CC(=O)c3sccc32)CC1 | 0
N[C@@H](Cc1cc(I)c(Oc2cc(I)c(O)c(I)c2)c(I)c1)C(=O)O | 0
